The measured values listed here are drawn from patent US20210268115A1.

Settings: male, Sprague-Dawley, rat, in vivo, 2 mg/kg

[
  {
    "Compound": "CCCCCCCC/C=C\\CCCCCCCC(=O)OCC(COC(=O)CCCCCCC/C=C\\CCCCCCCC)OC(=O)CCCCCCC(=O)OCO[C@@H]1CC[C@@]2(C)[C@@H](CC[C@@H]3[C@@H]2CC[C@]2(C)[C@@H](C(C)=O)CC[C@@H]32)C1 [Compound I-41, ALL-ASI-C8-2-TG-oleate]",
    "Measure Unit": "h",
    "Tmax": 1.7
  },
  {
    "Compound": "CCCCCCCC/C=C\\CCCCCCCC(=O)OCC(COC(=O)CCCCCCC/C=C\\CCCCCCCC)OC(=O)CCCCC(=O)OCO[C@@H]1CC[C@@]2(C)[C@@H](CC[C@@H]3[C@@H]2CC[C@]2(C)[C@@H](C(C)=O)CC[C@@H]32)C1 [Compound I-40, ALL-ASI-C6-2-TG-oleate]",
    "Measure Unit": "h",
    "Tmax": 1.7
  },
  {
    "Compound": "CCC(=O)OCC(COC(=O)CC)OC(=O)C(C)CCCCCCCCC(C)C(=O)OCCCCC(=O)O[C@@H]1CC[C@@]2(C)[C@@H](CC[C@@H]3[C@@H]2CC[C@]2(C)[C@@H](C(C)=O)CC[C@@H]32)C1 (some centres unmarked) [Compound I-5, ALL-FSI5-C12a′aMe-2-TG]",
    "Measure Unit": "h",
    "Tmax": 1.8
  },
  {
    "Compound": "CCCCCCCC/C=C\\CCCCCCCC(=O)OCC(COC(=O)CCCCCCC/C=C\\CCCCCCCC)OC(=O)CC(C)CCCCC(=O)OCO[C@@H]1CC[C@@]2(C)[C@@H](CC[C@@H]3[C@@H]2CC[C@]2(C)[C@@H](C(C)=O)CC[C@@H]32)C1 (some centres unmarked) [Compound I-42, ALL-ASI-C8bMe-2-TG-oleate]",
    "Measure Unit": "h",
    "Tmax": 1.5
  },
  {
    "Compound": "CCC(=O)OCC(COC(=O)CC)OC(=O)C(C)CCCCCCCCC(C)C(=O)OC(C)OC(=O)O[C@@H]1CC[C@@]2(C)[C@@H](CC[C@@H]3[C@@H]2CC[C@]2(C)[C@@H](C(C)=O)CC[C@@H]32)C1 (some centres unmarked) [Compound I-6, ALL-CMSI-C12a′aMe-2-TG]",
    "Measure Unit": "h",
    "Tmax": 1
  }
]

----------
This section presents molecules with their documented Cmax values.
Settings: male, Sprague-Dawley, rat, in vivo, po
Reported Metric: Cmax (nM)

[
  {
    "Molecule": "CCCC(=O)OCC(COC(=O)CCC)OC(=O)CC(C)CC(=O)OC(C)OC(=O)O[C@@H]1CC[C@@]2(C)[C@@H](CC[C@@H]3[C@@H]2CC[C@]2(C)[C@@H](C(C)=O)CC[C@@H]32)C1 (some centres unmarked) [Compound I-37, ALL-CMSI-C5bMe-2-TG-butyrate]",
    "Reported Metric": "Cmax",
    "Measure Unit": "nM",
    "Readout Value": 138
  },
  {
    "Molecule": "CC(=O)OCC(COC(C)=O)OC(=O)CC(C)CC(=O)OC(C)OC(=O)O[C@@H]1CC[C@@]2(C)[C@@H](CC[C@@H]3[C@@H]2CC[C@]2(C)[C@@H](C(C)=O)CC[C@@H]32)C1 (some centres unmarked) [Compound I-38, ALL-CMSI-C5bMe-2-TG-acetate]",
    "Reported Metric": "Cmax",
    "Measure Unit": "nM",
    "Readout Value": 335
  }
]

----------
Conditions: male, Sprague-Dawley, rat, in vivo, 2 mg/kg

[
  {
    "Molecule": "CCCCCCCCCCCCCCCC(=O)OCC(COC(=O)CCCCCCCCCCCCCCC)OC(=O)CC(C)CC(=O)OC(C)OC(=O)O[C@@H]1CC[C@@]2(C)[C@@H](CC[C@@H]3[C@@H]2CC[C@]2(C)[C@@H](C(C)=O)CC[C@@H]32)C1 (some centres unmarked)",
    "Tmax [h]": 2.3
  },
  {
    "Molecule": "CCCCCCCC/C=C\\CCCCCCCC(=O)OCC(COC(=O)CCCCCCC/C=C\\CCCCCCCC)OC(=O)CCCCC(C)CC(=O)OCOC(=O)O[C@@H]1CC[C@@]2(C)[C@@H](CC[C@@H]3[C@@H]2CC[C@]2(C)[C@@H](C(C)=O)CC[C@@H]32)C1 (some centres unmarked) [Compound I-49, ALL-CASI-C8b′Me-2-TG-oleate]",
    "Tmax [h]": 1.7
  }
]

----------
Settings: male, Sprague-Dawley, rat, in vivo, 2 mg/kg
Reported Metric: Mean Plasma AUC, 0-24 h (µM·h)

[
  {
    "Molecule": "CCCCCCCC/C=C\\CCCCCCCC(=O)OCC(COC(=O)CCCCCCC/C=C\\CCCCCCCC)OC(=O)CCCCC(C)CC(=O)OCOC(=O)O[C@@H]1CC[C@@]2(C)[C@@H](CC[C@@H]3[C@@H]2CC[C@]2(C)[C@@H](C(C)=O)CC[C@@H]32)C1 (stereo partly drawn) [Compound I-49, ALL-CASI-C8b′Me-2-TG-oleate]",
    "Measure Unit": "µM·h",
    "Readout Value": 0.513
  },
  {
    "Molecule": "CCC(=O)OCC(COC(=O)CC)OC(=O)C(C)CCCCCCCCC(C)C(=O)OC(C)OC(=O)O[C@@H]1CC[C@@]2(C)[C@@H](CC[C@@H]3[C@@H]2CC[C@]2(C)[C@@H](C(C)=O)CC[C@@H]32)C1 (stereo partly drawn) [Compound I-6, ALL-CMSI-C12a′aMe-2-TG]",
    "Measure Unit": "µM·h",
    "Readout Value": 0.3209
  },
  {
    "Molecule": "CCCCCCCC/C=C\\CCCCCCCC(=O)OCC(COC(=O)CCCCCCC/C=C\\CCCCCCCC)OC(=O)CCCCCCC(=O)OCO[C@@H]1CC[C@@]2(C)[C@@H](CC[C@@H]3[C@@H]2CC[C@]2(C)[C@@H](C(C)=O)CC[C@@H]32)C1 [Compound I-41, ALL-ASI-C8-2-TG-oleate]",
    "Measure Unit": "µM·h",
    "Readout Value": 0.211
  }
]
